The reported measurements were obtained from patent US20120245357A1.

Quick reference for pIC50 among some compounds
# TARGET_OF_ASSAY: human recombinant ALR2 (Homo sapiens, UniProt P15121)
# Construct: made in house; host or cells: E. coli JM101
# METHOD_NOTES: ALR2 inhibition and determination of IC50 values (NADPH oxidation at 340 nm)
# Assay type: biochemical
# CONDITION_INFO: human recombinant ALR2; read-out: IC50 value, ALR2 inhibition
pIC50: −log10 of the molar value.

{"COMPOUND": "COc1cc(C(CC(=O)N2CCC=CC2=O)c2c[nH]c3ccc(Br)cc23)cc(OC)c1OC (racemic)", "pIC50": 4.82}
{"COMPOUND": "COc1cc(C(CC(=O)N2CCC(c3cn(Cc4ccccc4)c4ccccc34)CC2=O)c2cn(Cc3ccccc3)c3ccccc23)cc(OC)c1OC (stereo not shown)", "pIC50": 5.40}
{"COMPOUND": "COc1ccc2[nH]cc(C(CC(=O)N3CCC=CC3=O)c3cc(OC)c(OC)c(OC)c3)c2c1 (stereo not shown)", "pIC50": 5.10}
{"COMPOUND": "COc1cc(/C=C/C(=O)N2CCC=CC2=O)cc(OC)c1OC", "pIC50": 3.80}

---

# TARGET_OF_ASSAY: human recombinant ALR2 (Homo sapiens)
# Construct: made in house; host or cells: E. coli JM101
# METHOD_NOTES: ALR2 inhibition and determination of IC50 values (NADPH oxidation at 340 nm)
# Format: biochemical
# CONDITION_INFO: SAR studies text; read-out: IC50, in-vitro aldose reductase inhibition
pIC50: −log10 of the molar value.

{"MOLECULE": "COc1cc(C(CC(=O)N2CCC=CC2=O)c2c[nH]c3ccc(Br)cc23)cc(OC)c1OC (racemic)", "pIC50": 4.22}

---

# TARGET_OF_ASSAY: human recombinant ALR2 (Homo sapiens)
# Construct: made in house; host or cells: E. coli JM101
# METHOD_NOTES: ALR2 inhibition and determination of IC50 values (NADPH oxidation at 340 nm)
# Format: biochemical
# CONDITION_INFO: recombinant human ALR2 in vitro; average of four experimental values; read-out: IC-50
pIC50: −log10 of the molar value.
Quick reference for pIC50 among some compounds

{"COMPOUND": "COc1cc(C(CC(=O)N2CCC(c3c(C)[nH]c4ccccc34)CC2=O)c2c(C)[nH]c3ccccc23)cc(OC)c1OC (centres unmarked)", "TARGET_OF_ASSAY": "human recombinant ALR2 (Homo sapiens)", "pIC50": 4.40}
{"COMPOUND": "COc1cc(C(CC(=O)N2CCC(c3c(-c4ccccc4)[nH]c4ccccc34)CC2=O)c2c(-c3ccccc3)[nH]c3ccccc23)cc(OC)c1OC (centres unmarked)", "TARGET_OF_ASSAY": "human recombinant ALR2 (Homo sapiens)", "pIC50": 5.40}
